// provenance: ChEMBL document CHEMBL4428062

measured_on: Toll-like receptor 8 (Homo sapiens)
assay_summary: Agonist activity at TLR8 in human PBMC assessed as induction of IL-8 levels after 16 hrs by immunoassay
Calls of active or inactive are those of the source. The calls are words filed in the database; no cut-off is given here.
Classes used: label 1 (active), label 0 (inactive)

{"smiles_str": "CCCCNc1nc(N)nc(-c2ccccc2)c1CCCCN", "category": "label 0"}
{"smiles_str": "CCCCCn1c(N)nc2c(C)cccc21", "category": "label 1"}
{"smiles_str": "CCCCNc1cc(-c2ccccc2)nc(N)n1", "category": "label 0"}
{"smiles_str": "CCCCNc1nc(N)nc(C)c1CCCCN", "category": "label 0"}
{"smiles_str": "CCCCNc1nc(N)nc(C)c1I", "category": "label 1"}
